All figures here come from patent US20180172692A1.

Property: Signal-to-Background (Ratio of Relative Luminescence Units); scope: individual binders
- TARGET_OR_TEST_SYSTEM: T1, Epidermal growth factor receptor 2 (HER2 or ErbB-2) on HER2+ SKOV3 cells (human, UniProt P04626 23-1255)
- T1 construct: whole, on cells; Only claim 72 calls it 'human epidermal growth factor receptor 2 (HER2)'
- EXPERIMENT_SUMMARY: split-luciferase complementation on HER2+ SKOV3 cells (lysates, washed); paired with β9-9.29
Please reply with the bare figure in ratio and do not write the unit itself.

I would be grateful if you could share the reported Signal-to-Background (Ratio of Relative Luminescence Units) for β10*-G3 (designed binder, DARPin fusion expressed in E. coli, used as lysate; also called DARPin G3 with N-terminal β10*) MVSGWRLFKKISGGGSGHHHHHHHHGGGSGDLGKKLLEAARAGQDDEVRILMANGADVNAKDEYGLTPLYLATAHGHLEIVEVLLKNGADVNAVDAIGFTPLHLAAFIGHLEIAEVLLKHGADVNAQDKFGKTAFDISIGNGNEDLAEILQKLN .
36

Dear colleague, I am looking for the recorded Signal-to-Background (Ratio of Relative Luminescence Units) of the following binder: 73JH-β10* (Fab, V domains shown, Fab fusion expressed in E. coli, used as lysate; also called 73J Fab with β10* at the C-terminus of the heavy chain) VH: EVQLVESGGGLVQPGGSLRLSCAASGFNLYSSYIHWVRQAPGKGLEWVASIYPYSSYTSYADSVKGRFTISADTSKNTAYLQMNSLRAEDTAVYYCARYYGFAMDYWGQGTLVTVSS VL: DIQMTQSPSSLSASVGDRVTITCRASQSVSSAVAWYQQKPGKAPKLLIYSASSLYSGVPSRFSGSRSGTDFTLTISSLQPEDFATYYCQQGYYYPFTFGQGTKVEIKR
81

// lookup Signal-to-Background (Ratio of Relative Luminescence Units) for β10*-9.29 (designed binder, DARPin fusion expressed in E. coli, used as lysate; also called DARPin 9.29 with N-terminal β10*) MVSGWRLFKKISGGGSGHHHHHHHHGGGSGGSDLGKKLLEAARAGQDDEVRILMANGADVNAHDFYGITPLHLAANFGHLEIVEVLLKHGADVNAFDYDNTPLHLAADAGHLEIVEVLLKYGADVNASDRDGHTPLHLAAREGHLEIVEVLLKNGADVNAQDKFGKTPFDLAIDNGNEDIAEVLQKAA
13

What value of Signal-to-Background (Ratio of Relative Luminescence Units) has been recorded for this entry: β10*-L73J (Fab, V domains shown, Fab fusion expressed in E. coli, used as lysate; also called 73J Fab with β10* at the N-terminus of the light chain) VH: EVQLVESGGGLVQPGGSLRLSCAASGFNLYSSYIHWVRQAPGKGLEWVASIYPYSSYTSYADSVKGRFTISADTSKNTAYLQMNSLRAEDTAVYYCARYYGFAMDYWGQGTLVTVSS VL: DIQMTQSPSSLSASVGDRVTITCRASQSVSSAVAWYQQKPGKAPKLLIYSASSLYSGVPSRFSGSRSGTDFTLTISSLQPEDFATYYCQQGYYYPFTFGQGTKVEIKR
173

I'd like to know its Signal-to-Background (Ratio of Relative Luminescence Units). The binder in question is G3-β10* (designed binder, DARPin fusion expressed in E. coli; Used as lysate in the screen and later IMAC-purified; also called DARPin G3 with C-terminal β10*) MRGSHHHHHHGSDLGKKLLEAARAGQDDEVRILMANGADVNAKDEYGLTPLYLATAHGHLEIVEVLLKNGADVNAVDAIGFTPLHLAAFIGHLEIAEVLLKHGADVNAQDKFGKTAFDISIGNGNEDLAEILQKLNGGGSGGGGSGGGGSGVSGWRLFKKIS
19
